system: Plasmodium berghei; assay: Screen against P. berghei liver stage (PbLuc), transformed with Luciferase, at 10uM; type: functional, HepG2; conditions: tested at 10 uM
The whole screen tested about 69,000 compounds, of which about 8,600 (12%) showed an effect of 50% or more. This excerpt belongs to a sample that is enriched for strong results.
Please use Satisfied whenever INHIBITION is not below 30%, and Not satisfied whenever it is.

>>> df
                                    compound  assigned_category
 0  COc1ccc2c(c1)C1(CCN(Cc3cccnc3)CC1)N(C)CC2      Not satisfied
 1  CCN1CCCCC1C(=O)N1CCc2onc(-c3ccc(Cl)cc3)c2C1 (centres undefined)      Not satisfied
 2  CS(=O)(=O)N1CCCC1CS(=O)(=O)c1ccccc1 (centres undefined)          Satisfied
 3  Cc1cnc(N2CCOCC3(CCN(c4ccccn4)C3)C2)nc1 (centres undefined)          Satisfied
 4  COc1ccnc(N2C[C@H]3CC[C@@H](C2)N(CC2CCC2)C3=O)n1          Satisfied
 5  O=C(NCC1CCOCC1)[C@H]1C[C@@H]2CCN(Cc3ccncc3)C[C@@H]2O1      Not satisfied
 6  CC1CCN(c2cc(CCC3CCCN3)ncn2)CC1 (centres undefined)          Satisfied
 7  CCC1CNCc2cc3c(C)ccc(C)c3nc2O1 (centres undefined)      Not satisfied
 8   CN(C)C(=O)CCNC(=O)Nc1cccc(Cl)c1-n1cccn1      Not satisfied
 9  Cc1ccsc1C(=O)Nc1ccc(N2CCC(O)CC2)c(C#N)c1          Satisfied
10    N#Cc1cc(NC(=O)c2ccccc2)ccc1N1CCC(O)CC1      Not satisfied
11      CCNC(=O)c1ccc2c(c1)nc1n2CCN(C(C)C)C1      Not satisfied
12  O=C(NCc1ccco1)[C@@]12CCO[C@@H]1CCN(C1CCC1)C2      Not satisfied
13          CSc1ncccc1C(=O)NCc1ccc(N(C)C)cc1      Not satisfied
14  CC1(c2ncc(CN3CCSCC3)cn2)CCCCO1 (centres undefined)          Satisfied
15  CCN(CC)C(=O)CNC(=O)N1CCC(c2ccc(OC)cc2)C1 (centres undefined)      Not satisfied
16  Cc1cnc(CN2CCC(N(C)Cc3noc(C4CC4)n3)C2)o1 (centres undefined)          Satisfied
17  O=C(c1ccnnc1)N1C[C@H]2CN(Cc3cccc(F)c3)C(=O)[C@H]2C1          Satisfied
18  CC(C)CCN1CCc2cc(C(=O)N(C)C)c(NCC3CC3)nc2CC1      Not satisfied
19  O=C(c1cccnc1)N1CCOCC2(CCN(c3ncccn3)C2)C1 (centres undefined)      Not satisfied
20               CCN(CCO)Cc1ccc(Br)c2cccnc12      Not satisfied
21  O=S(=O)(CC1CCCN1S(=O)(=O)C1CC1)c1ccccc1 (centres undefined)      Not satisfied
22  Cn1ccnc1-c1ccc(NCCC2COc3ccccc3O2)nn1 (centres undefined)          Satisfied
23   Cn1ccnc1-c1ccc(NC[C@H]2CCc3ccccc3O2)nn1          Satisfied
